All values here come from patent US20170306005A1.

# system-name: T1, mouse tenascin-C rCd4-His-FBG (rat; mouse, UniProt P05540 207-392, limits assumed)
# T1 construct: domain: domains 3 and 4; C-terminal FBG fusion; biotinylated in the ELISA screen; also called Mu TNC; mouse TNC rCd4-His-FBG; not shown: 6His tag
# T1 sequence (chain (part 1 of 2)): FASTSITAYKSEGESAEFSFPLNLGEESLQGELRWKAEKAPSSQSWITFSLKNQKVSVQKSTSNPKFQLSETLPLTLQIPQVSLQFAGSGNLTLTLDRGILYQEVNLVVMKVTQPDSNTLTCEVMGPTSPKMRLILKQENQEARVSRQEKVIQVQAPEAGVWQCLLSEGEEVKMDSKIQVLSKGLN
# T1 sequence (chain (part 2 of 2)): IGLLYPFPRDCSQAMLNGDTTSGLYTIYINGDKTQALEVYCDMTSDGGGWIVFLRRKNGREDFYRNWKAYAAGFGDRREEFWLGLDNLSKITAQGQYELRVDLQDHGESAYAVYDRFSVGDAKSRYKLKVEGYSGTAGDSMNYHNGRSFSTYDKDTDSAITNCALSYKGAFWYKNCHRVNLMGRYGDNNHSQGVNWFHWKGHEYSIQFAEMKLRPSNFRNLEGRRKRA
# experiment: SPR off-rate screen, captured IgG4 supernatant, 25 C
property-label: koff (s⁻¹)

[[record]]
binder = "165_13_E1 human IgG4 (antibody, V domains shown, human IgG4 with hinge S241P) VH: QVQLVESGGGLVQPGRSLRLSCAASGFTFDDYAMHWVRQAPGKGLEWVSGISGSGGSTYYADSVKGRFTISRDNAKNSLYLQMNSLRAEDTALYYCAKDISAVMDVPQTWGQGTMVTVSS VL: DIQMTQSPASLPTPVGDRVTITCRASQYIQGFLNWYQQKPGKAPKLLIYDASNLETGVPSRFSGSGSGTDFTLTISSLQPEDFATYYCQQSYSTPQTFGQGTKVDIKR"
reported_result = 0.0577

[[record]]
binder = "161_01_C09 human IgG4 (antibody, V domains shown, human IgG4 with hinge S241P; also called Antibody 161 01 C09 (derived from 2A5)) VH: EVRLVQSGAEVKKPGASVKVSCKVSGYTLTELSMHWVRQAPGKGLEWMGGFDPEDGETIYAQKFQGRVTMTEDTSTDTAYMELSSLRSEDTAVYYCATAQLPYLAQTYWGQGTLVTVSS VL: DIQMTQSPASLPTSVGDRVTITCRASQYIQGFLNWYQQKPGKAPRLLIYAASTLQDGVPSRFSGSGYGTDFTLTISSLQPEDFATYYCQQSYSTPWTFGQGTKVEIKR"
reported_result = "2.3e-07"

[[record]]
binder = "165_13_A4 human IgG4 (antibody, V domains shown, human IgG4 with hinge S241P) VH: QVQLVESGGGLVQPGRSLRLSCAASGFTFDDYAMHWVRQAPGKGLEWVSGISGSGGSTYYADSVKGRFTISRDNAKNSLYLQMNSLRAEDTALYYCAKDKYPVLDTFDIWGQGTMVTVSS VL: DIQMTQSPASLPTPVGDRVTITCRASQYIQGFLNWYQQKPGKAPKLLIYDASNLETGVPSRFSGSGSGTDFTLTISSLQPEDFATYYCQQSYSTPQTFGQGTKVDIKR"
reported_result = 0.00797

[[record]]
binder = "163_02_A12 human IgG4 (antibody, V domains shown, human IgG4 with hinge S241P; also called Antibody 163 02 A12 (derived from 2A5)) VH: EVRLVQSGAEVKKPGASVKVSCKVSGYTLTELSMHWVRQAPGKGLEWMGGFDPEDGETIYAQKFQGRVTMTEDTSTDTAYMELSSLRSEDTAVYYCATAQKETYALTYWGQGTLVTVSS VL: DIQMTQSPASLPTSVGDRVTITCRASQYIQGFLNWYQQKPGKAPRLLIYAASTLQDGVPSRFSGSGYGTDFTLTISSLQPEDFATYYCLHHYREPWTFGQGTKVEIKR"
reported_result = 0.00094

[[record]]
binder = "B12 human IgG4 (antibody, V domains shown, human IgG4 with hinge S241P; also called B12 parent; B12-hIgG4) VH: QVQLVESGGGLVQPGRSLRLSCAASGFTFDDYAMHWVRQAPGKGLEWVSGISGSGGSTYYADSVKGRFTISRDNAKNSLYLQMNSLRAEDTALYYCAKDISAVPDTFDIWGQGTMVTVSS VL: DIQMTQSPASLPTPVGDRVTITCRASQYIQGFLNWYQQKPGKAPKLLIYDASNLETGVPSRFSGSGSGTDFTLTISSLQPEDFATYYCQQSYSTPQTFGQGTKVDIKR"
reported_result = 0.03

[[record]]
binder = "162_02_H5 human IgG4 (antibody, V domains shown, human IgG4 with hinge S241P; also called Antibody 162 02 H5 (derived from 2A5)) VH: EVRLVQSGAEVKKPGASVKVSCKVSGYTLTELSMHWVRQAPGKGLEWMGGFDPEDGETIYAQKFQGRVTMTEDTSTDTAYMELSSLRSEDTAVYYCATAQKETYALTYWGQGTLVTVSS VL: DIQMTQSPASLPTSVGDRVTITCRASQYIQGFLNWYQQKPGKAPRLLIYAASTLQDGVPSRFSGSGYGTDFTLTISSLQPEDFATYYCQNQYTGPWTFGQGTKVEIKR"
reported_result = 0.000167

[[record]]
binder = "162_02_D3 human IgG4 (antibody, V domains shown, human IgG4 with hinge S241P; also called Antibody 162 02 D3 (derived from 2A5)) VH: EVRLVQSGAEVKKPGASVKVSCKVSGYTLTELSMHWVRQAPGKGLEWMGGFDPEDGETIYAQKFQGRVTMTEDTSTDTAYMELSSLRSEDTAVYYCATAQIHPLGLTYWGQGTLVTVSS VL: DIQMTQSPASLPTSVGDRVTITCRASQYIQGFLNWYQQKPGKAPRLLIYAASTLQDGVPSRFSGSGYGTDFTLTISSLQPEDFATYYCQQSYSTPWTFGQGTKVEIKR"
reported_result = "1.06e-06"

[[record]]
binder = "165_13_B1 human IgG4 (antibody, V domains shown, human IgG4 with hinge S241P) VH: QVQLVESGGGLVQPGRSLRLSCAASGFTFDDYAMHWVRQAPGKGLEWVSGISGSGGSTYYADSVKGRFTISRDNAKNSLYLQMNSLRAEDTALYYCAKVMSSMEDAFDIWGQGTMVTVSS VL: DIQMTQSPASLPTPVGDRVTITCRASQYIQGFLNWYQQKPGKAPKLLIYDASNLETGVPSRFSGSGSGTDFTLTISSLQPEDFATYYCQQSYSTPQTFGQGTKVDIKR"
reported_result = "1.7e-06"

[[record]]
binder = "160_01_E3 human IgG4 (antibody, V domains shown, human IgG4 with hinge S241P; also called Antibody 160 01 E3 (derived from 2A5)) VH: EVRLVQSGAEVKKPGASVKVSCKVSGYTLTELSMHWVRQAPGKGLEWMGGFDPEDGETIYAQKFQGRVTMTEDTSTDTAYMELSSLRSEDTAVYYCATQRYVWEALTYWGQGTLVTVSS VL: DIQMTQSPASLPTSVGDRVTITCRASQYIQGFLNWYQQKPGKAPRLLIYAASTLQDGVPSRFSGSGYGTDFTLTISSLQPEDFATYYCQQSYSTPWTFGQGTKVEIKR"
reported_result = 0.0559

